Test system: acetylated tubulin (Lys40) in HeLa cells
TEST DETAILS: Acetylated α-tubulin measurement in vitro (immunocytochemistry)
Format: cell-based
ASSAY SETUP: Homo sapiens, 6 hours incubation, acetylated tubulin (Lys40) by immunocytochemistry, read-out: IC50 (Tubulin deacetylation)
pIC50: −log10 of the molar value.
# key: entry, value: pIC50

CN(C)c1nc(SCC(=O)c2ccc(CNC(=O)C(C)(C)C)s2)c2ccccc2n1 :: 5.48 to 6.00
CS(=O)(=O)NCCc1ccc(C(=O)CSc2nc(C(F)(F)F)nc3ccccc23)s1 :: 5.48 to 6.00
Cc1cc2nc(C(F)(F)F)nc(SCC(=O)c3ccc(CNC(=O)CO)s3)n2n1 :: 6.30 to 7.00
Cc1nc(SCC(=O)c2ccc(CNC(=O)CO)s2)c2cc(F)cnc2n1 :: ≥ 7.00
O=C(CO)NCc1ccc(C(=O)CSc2nccc3ccncc23)s1 :: 6.30 to 7.00
O=C(CO)NCc1ccc(C(=O)CSc2nccn3cncc23)s1 :: 6.30 to 7.00
Cc1nc(SCC(=O)c2ccc(CNC(=O)C(C)(C)C)s2)c2cnn(C)c2n1 :: < 5.48
Cn1ncc2c(SCC(=O)c3ccc(C4CCN(C(=O)CO)C4)s3)ncnc21 (stereo not drawn) :: 5.48 to 6.00

## Task Can you share its pIC50? I mean this molecule: Cc1nc(SCC(=O)c2ccc(CNC(=O)C(C)(C)C)s2)c2ccc(Cl)cc2n1
## Result < 5.48

## Task May I ask what pIC50 has been recorded for COc1ccc2nc(C)nc(SCC(=O)c3ccc(CNC(=O)C4CCCN4)s3)c2c1 (stereo not drawn) ?
## Result 6.30 to 7.00

## Task Item under review: COc1cc(F)c2nc(C)nc(SCC(=O)c3ccc(CNC(=O)CO)s3)c2c1 . Reported pIC50?
## Result 6.30 to 7.00

## Task Which pIC50 is listed for O=C(CO)NCc1ccc(C(=O)CSc2nc3cc(C(F)(F)F)ncc3o2)s1 ?
## Result ≥ 7.00

## Task Field request: pIC50 | item: Cc1nc(SCC(=O)c2ccc(CNS(C)(=O)=O)s2)c2ccccc2n1
## Result 5.48 to 6.00
